ASSAYED_TARGET: UniProt Q15119
ASSAY_PROCEDURE: Inhibitory action of PDHK activity in vitro (kinase reaction, residual PDH activity measured)
Type: biochemical
STUDY_CONDITIONS: PDHK inhibitory activity, class symbol of IC50
pIC50: −log10 of the molar value.

{"COMPOUND": "Cc1ccc2c(c1)C(O)(C(F)(F)F)c1cccc(C)c1-2 (centres unmarked)", "pIC50": "< 6.00"}
{"COMPOUND": "CC(=O)NCCOc1ccc2c(c1)C(O)(C(F)(F)F)c1ccccc1-2 (centres unmarked)", "pIC50": "< 6.00"}
{"COMPOUND": "OC1(C(F)(F)F)c2ccccc2-c2ccc(Br)cc21 (centres unmarked)", "pIC50": "< 6.00"}
{"COMPOUND": "O=C1CCCN1CCOc1cc(CO)c2c(c1)C(O)(C(F)(F)F)c1ccccc1-2 (centres unmarked)", "pIC50": "> 7.00"}
{"COMPOUND": "CN(C)C(=O)c1cc(-c2cncnc2)c2c(c1)C(O)(C(F)(F)F)c1ccccc1-2 (centres unmarked)", "pIC50": "6.00 to 7.00"}
{"COMPOUND": "CC(C)NC(=O)Cn1cc(-c2cccc3c2-c2ccccc2C3(O)C(F)(F)F)cn1 (centres unmarked)", "pIC50": "> 7.00"}
{"COMPOUND": "CN(C)CCCOc1ccc2c(c1)C(O)(C(F)(F)F)c1ccccc1-2 (centres unmarked)", "pIC50": "6.00 to 7.00"}
{"COMPOUND": "COC(=O)C1CCCN1C(=O)c1ccc2c(c1)C(O)(C(F)(F)F)c1ccccc1-2 (centres unmarked)", "pIC50": "< 6.00"}
{"COMPOUND": "CNC(=O)c1cccc2c1-c1ccccc1C2(O)C(F)(F)F (centres unmarked)", "pIC50": "< 6.00"}
{"COMPOUND": "CNC(=O)COC1CN(C(=O)c2ccc3c(c2)C(O)(C(F)(F)F)c2ccccc2-3)C1 (centres unmarked)", "pIC50": "6.00 to 7.00"}
{"COMPOUND": "COC(=O)c1cc(Br)c2c(c1)C(O)(C(F)(F)F)c1ccccc1-2 (centres unmarked) [compound 472]", "pIC50": "6.00 to 7.00"}
{"COMPOUND": "NC(=O)COc1cc(-c2cncnc2)c2c(c1)C(O)(C(F)(F)F)c1ccccc1-2 (centres unmarked)", "pIC50": "> 7.00"}
{"COMPOUND": "CC(=O)N(C)C[C@H](O)COc1cc(-c2cnn(C)c2)c2c(c1)C(O)(C(F)(F)F)c1ccccc1-2 (some centres unmarked)", "pIC50": "> 7.00"}
{"COMPOUND": "COC(=O)COc1cc(Br)c2c(c1)C(O)(C(F)(F)F)c1ccccc1-2 (single isomer, unassigned) [compound 451]", "pIC50": "6.00 to 7.00"}
{"COMPOUND": "OC1(C(F)(F)F)c2ccccc2-c2ccc(-n3cccn3)cc21 (centres unmarked)", "pIC50": "6.00 to 7.00"}
{"COMPOUND": "CS(=O)(=O)c1cccc2c1-c1ccccc1C2(O)C(F)(F)F (centres unmarked)", "pIC50": "< 6.00"}
{"COMPOUND": "COC(=O)C1CN(C(=O)c2ccc3c(c2)C(O)(C(F)(F)F)c2ccccc2-3)C1 (centres unmarked)", "pIC50": "6.00 to 7.00"}
